experimental target: glucagon receptor (GCGR) (Homo sapiens)
Construct: expressed in transfected cells; host or cells: CHO-K1 cells overexpressing GCGR (membrane fractions)
Sequence (P47871 26-477): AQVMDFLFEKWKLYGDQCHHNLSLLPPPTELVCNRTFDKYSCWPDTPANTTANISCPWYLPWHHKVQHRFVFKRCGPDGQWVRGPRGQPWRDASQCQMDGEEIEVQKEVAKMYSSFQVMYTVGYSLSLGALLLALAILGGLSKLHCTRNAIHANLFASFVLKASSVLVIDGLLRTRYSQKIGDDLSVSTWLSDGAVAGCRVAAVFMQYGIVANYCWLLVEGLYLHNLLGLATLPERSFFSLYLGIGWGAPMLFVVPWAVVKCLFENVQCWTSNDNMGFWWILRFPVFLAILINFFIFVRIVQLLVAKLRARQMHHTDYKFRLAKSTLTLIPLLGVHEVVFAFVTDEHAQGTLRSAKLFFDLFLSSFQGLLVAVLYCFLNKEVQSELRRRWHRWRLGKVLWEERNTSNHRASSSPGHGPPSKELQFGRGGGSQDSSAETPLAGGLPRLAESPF
assay overview: I125-glucagon binding assay (competition, GCGR membrane fractions)
experimental parameters: competition with I125-glucagon 0.0625 nM, membrane fractions of GCGR overexpressed CHO-K1 cells
measurement kind: IC50 (nM)

A selection of reference data follows.
CC(C)[C@@H](COc1cnc(-c2cc3ccccc3o2)nc1)Nc1ccc(C(=O)NCCC(=O)O)cc1 = 266
CC[C@H](C)[C@@H](COc1cc(C)c(-c2ccc(OC(F)(F)F)cc2)c(C)c1)Nc1ccc(C(=O)NCCC(=O)O)cc1 = 627
CCCC[C@@H](COc1ccc(-c2ccc(C(F)(F)F)cc2F)cc1)Nc1ccc(C(=O)NCCC(=O)O)cc1 = 108
CC[C@H](C)[C@@H](COc1ccc(-c2cc3ccccc3o2)cc1)Nc1ccc(C(=O)NCc2nnn[nH]2)cc1 = 98
CC(C)[C@H](COc1ccc(-c2ccc(C(F)(F)F)cc2Cl)cc1)Nc1ccc(C(=O)NCCC(=O)O)cc1 = 145
CC(C)[C@@H](COc1ccc(-c2cc(Cl)cc(Cl)c2)c(F)c1)Nc1ccc(C(=O)NCCC(=O)O)cc1 = 227

(A) CC(C)[C@H](COc1ccc(-c2cc3ccccc3o2)cc1)Nc1ccc(C(=O)NCCC(=O)O)cc1
(B) CC(C)[C@@H](COc1ccc(-c2ccc(N(C)C)cc2)cc1)Nc1ccc(C(=O)NCCC(=O)O)cc1
(C) COc1cc(OC[C@@H](Nc2ccc(C(=O)NCCC(=O)O)cc2)C(C)C)ccc1-c1ccc(C(F)(F)F)cc1F
(D) CCCC[C@@H](COc1ccc(-c2ccc(C(F)(F)F)cc2)c(Cl)c1)Nc1ccc(C(=O)NCCC(=O)O)cc1
Rank ascending by IC50. As an answer, provide the labels arranged in the order called for. D, C, A, B
(D: 51 nM, C: 79 nM, A: 113 nM, B: 224 nM)

(I) Cc1cc(OC[C@@H](Cc2ccccc2)Nc2ccc(C(=O)NCCC(=O)O)cc2)cc(C)c1-c1ccc(C(F)(F)F)cc1
(II) CC(C)[C@@H](COc1ccc(-c2cc3ccccc3o2)c(F)c1)Nc1ccc(C(=O)NCCC(=O)O)cc1
(III) CC(C)[C@@H](COc1ccc(-c2ccc(C(F)(F)F)cn2)cc1)Nc1ccc(C(=O)NCCC(=O)O)cc1
Rank ascending by IC50. As an answer, provide the labels arranged in the order called for. II, III, I
